experiment: PAMPA permeability of pure compounds under sink conditions; format: in vitro ADME; conditions: PAMPA, detergents in donor and acceptor wells (sink conditions), read-out: PAMPA Perm.
Square brackets hold non-standard residues; d marks the D form. Peptide text beside a SMILES is read from it. NCyclohexylmethylGly = O=C(O)CNCC1CCCCC1; NMeL = CN[C@@H](CC(C)C)C(=O)O; NMeA = CN[C@@H](C)C(=O)O; NEtG = CCNCC(=O)O
measurement-label: Papp (×10⁻⁶ cm/s)
Numbers only, in ×10⁻⁶ cm/s.

compound | Papp / ×10⁻⁶ cm/s
CCN1CC(=O)N[C@@H](CC(C)C)C(=O)N2CCC[C@@H]2C(=O)N(C)[C@@H](CC(C)C)C(=O)N[C@@H](C)C(=O)N(CC2CCCCC2)CC(=O)N[C@@H](Cc2ccccc2)C(=O)N2CCC[C@@H]2C(=O)N(C)[C@@H](CC(C)C)C(=O)N[C@@H](C)C1=O [Compound B08] (cyclo([NEtG]L[dP][NMeL]A[NCyclohexylmethylGly]F[dP][NMeL]A)) | 50

Pending compound:
Item CCN1CC(=O)N[C@@H](CC(C)C)C(=O)N(C)[C@@H](C)C(=O)N[C@@H](CC(C)C)C(=O)N2CCC[C@@H]2C(=O)N(CC2CCCCC2)CC(=O)N[C@@H](CC(C)C)C(=O)N(C)[C@@H](C)C(=O)N[C@@H](Cc2ccccc2)C(=O)N2CCC[C@@H]2C1=O [Compound A08] (cyclo(F[dP][NEtG]L[NMeA]L[dP][NCyclohexylmethylGly]L[NMeA])) has what recorded Papp?
18

* * *

test: physchem; details: pH 7.4, LogD (oct/w)
Square brackets hold non-standard residues; d marks the D form. Peptide text beside a SMILES is read from it. Gly(N-CH2-oxan-4-yl) = O=C(O)CNCC1CCOCC1; NMeL = CN[C@@H](CC(C)C)C(=O)O; NEtG = CCNCC(=O)O
measurement-label: logD
Answers are plain numbers.

Look up logD for this compound: CCN1CC(=O)N[C@@H](CC(C)C)C(=O)N2CCC[C@@H]2C(=O)N(C)[C@@H](CC(C)C)C(=O)N[C@@H](C)C(=O)N(CC2CCOCC2)CC(=O)N[C@@H](Cc2ccccc2)C(=O)N2CCC[C@@H]2C(=O)N(C)[C@@H](CC(C)C)C(=O)N[C@@H](C)C1=O [Compound B09] (cyclo(A[NEtG]L[dP][NMeL]A[Gly(N-CH2-oxan-4-yl)]F[dP][NMeL]))
3.6

* * *

assay: Experimental octanol/water partition coefficient Log D (oct/w); details: octanol/water, pH 7.4, LogD (oct/w)
Square brackets hold non-standard residues; d marks the D form. Peptide text beside a SMILES is read from it. Gly(N-CH2-oxan-4-yl) = O=C(O)CNCC1CCOCC1; NCyclohexylmethylGly = O=C(O)CNCC1CCCCC1; NMeL = CN[C@@H](CC(C)C)C(=O)O; NMeA = CN[C@@H](C)C(=O)O; NEtG = CCNCC(=O)O
measurement-label: logD
Numbers only.

Here is how some compounds turned out for logD.
compound | logD
CCN1CC(=O)N[C@@H](CC(C)C)C(=O)N(C)[C@@H](C)C(=O)N[C@@H](CC(C)C)C(=O)N2CCC[C@@H]2C(=O)N(CC2CCCCC2)CC(=O)N[C@@H](CC(C)C)C(=O)N(C)[C@@H](C)C(=O)N[C@@H](Cc2ccccc2)C(=O)N2CCC[C@@H]2C1=O [Compound A08] (cyclo(F[dP][NEtG]L[NMeA]L[dP][NCyclohexylmethylGly]L[NMeA])) | 4.1
CCN1CC(=O)N[C@@H](CC(C)C)C(=O)N(C)[C@@H](C)C(=O)N[C@@H](CC(C)C)C(=O)N2CCC[C@@H]2C(=O)N(CC2CCOCC2)CC(=O)N[C@@H](CC(C)C)C(=O)N(C)[C@@H](C)C(=O)N[C@@H](Cc2ccccc2)C(=O)N2CCC[C@@H]2C1=O [Compound A09] (cyclo([NEtG]L[NMeA]L[dP][Gly(N-CH2-oxan-4-yl)]L[NMeA]F[dP])) | 4.1
CCN1CC(=O)N[C@@H](CC(C)C)C(=O)N(C)[C@@H](C)C(=O)N[C@@H](CC(C)C)C(=O)N2CCC[C@@H]2C(=O)N(CC2CCOCC2)CC(=O)N[C@@H](CC(C)C)C(=O)N(C)[C@@H](C)C(=O)N[C@@H](C)C(=O)N2CCC[C@@H]2C1=O [Compound A03] (cyclo([NEtG]L[NMeA]L[dP][Gly(N-CH2-oxan-4-yl)]L[NMeA]A[dP])) | 2.9

Switching to the query record.
Quick one: logD for CCN1CC(=O)N[C@@H](CC(C)C)C(=O)N2CCC[C@@H]2C(=O)N(C)[C@@H](CC(C)C)C(=O)N[C@@H](C)C(=O)N(CC2CCOCC2)CC(=O)N[C@@H](C)C(=O)N2CCC[C@@H]2C(=O)N(C)[C@@H](CC(C)C)C(=O)N[C@@H](C)C1=O [Compound B03] (cyclo(A[NEtG]L[dP][NMeL]A[Gly(N-CH2-oxan-4-yl)]A[dP][NMeL])) ?
2.1

* * *

experiment: Oral bioavailability in mice; type: in vivo; details: mouse, in vivo, po, 100 mg/kg, mouse, oral dose 100 mg/kg, no inhibitors; based on AUC at 1 mg/kg IV dose; read-out: BA
Square brackets hold non-standard residues; d marks the D form. Peptide text beside a SMILES is read from it. Gly(N-CH2-oxan-4-yl) = O=C(O)CNCC1CCOCC1; NMeA = CN[C@@H](C)C(=O)O; NEtG = CCNCC(=O)O
measurement-label: bioavailability (%)
Give bare numbers, in %.

Recorded bioavailability for CCN1CC(=O)N[C@@H](CC(C)C)C(=O)N(C)[C@@H](C)C(=O)N[C@@H](CC(C)C)C(=O)N2CCC[C@@H]2C(=O)N(CC2CCOCC2)CC(=O)N[C@@H](CC(C)C)C(=O)N(C)[C@@H](C)C(=O)N[C@@H](C)C(=O)N2CCC[C@@H]2C1=O [Compound A03] (cyclo([NEtG]L[NMeA]L[dP][Gly(N-CH2-oxan-4-yl)]L[NMeA]A[dP])) , please?
22.1

* * *

test: Aqueous solubility, Japanese Pharmacopoeia Second Fluid (pH 6.8); assay type: physicochemical; conditions: Japanese Pharmacopoeia Second Fluid, pH 6.8, pure compounds, values in text; read-out: Aqueous solubility
Square brackets hold non-standard residues; d marks the D form. Peptide text beside a SMILES is read from it. Gly(N-CH2-oxan-4-yl) = O=C(O)CNCC1CCOCC1; NCyclohexylmethylGly = O=C(O)CNCC1CCCCC1; NMeL = CN[C@@H](CC(C)C)C(=O)O; NMeA = CN[C@@H](C)C(=O)O; NEtG = CCNCC(=O)O
measurement-label: solubility (µg/mL)
Answers are plain numbers, in µg/mL.

Below, each entry is followed by its recorded solubility result.
compound | solubility (µg/mL)
CCN1CC(=O)N[C@@H](CC(C)C)C(=O)N(C)[C@@H](C)C(=O)N[C@@H](CC(C)C)C(=O)N2CCC[C@@H]2C(=O)N(CC2CCOCC2)CC(=O)N[C@@H](CC(C)C)C(=O)N(C)[C@@H](C)C(=O)N[C@@H](C)C(=O)N2CCC[C@@H]2C1=O [Compound A03] (cyclo([NEtG]L[NMeA]L[dP][Gly(N-CH2-oxan-4-yl)]L[NMeA]A[dP])) | 1900
CCN1CC(=O)N[C@@H](CC(C)C)C(=O)N2CCC[C@@H]2C(=O)N(C)[C@@H](CC(C)C)C(=O)N[C@@H](C)C(=O)N(CC2CCCCC2)CC(=O)N[C@@H](Cc2ccccc2)C(=O)N2CCC[C@@H]2C(=O)N(C)[C@@H](CC(C)C)C(=O)N[C@@H](C)C1=O [Compound B08] (cyclo([NEtG]L[dP][NMeL]A[NCyclohexylmethylGly]F[dP][NMeL]A)) | 20

Request the reported solubility associated with CCN1CC(=O)N[C@@H](CC(C)C)C(=O)N(C)[C@@H](C)C(=O)N[C@@H](CC(C)C)C(=O)N2CCC[C@@H]2C(=O)N(CC2CCCCC2)CC(=O)N[C@@H](CC(C)C)C(=O)N(C)[C@@H](C)C(=O)N[C@@H](Cc2ccccc2)C(=O)N2CCC[C@@H]2C1=O [Compound A08] (cyclo(F[dP][NEtG]L[NMeA]L[dP][NCyclohexylmethylGly]L[NMeA]))
70

* * *

test: Oral bioavailability in mice; assay type: in vivo; details: mouse, in vivo, po, 200 mg/kg, mouse, oral dose 200 mg/kg, no inhibitors; based on AUC at 1 mg/kg IV dose; read-out: BA
Square brackets hold non-standard residues; d marks the D form. Peptide text beside a SMILES is read from it. Gly(N-CH2-oxan-4-yl) = O=C(O)CNCC1CCOCC1; NMeA = CN[C@@H](C)C(=O)O; NEtG = CCNCC(=O)O
measurement-label: bioavailability (%)
Answers are plain numbers, in %.

Name the recorded bioavailability for CCN1CC(=O)N[C@@H](CC(C)C)C(=O)N(C)[C@@H](C)C(=O)N[C@@H](CC(C)C)C(=O)N2CCC[C@@H]2C(=O)N(CC2CCOCC2)CC(=O)N[C@@H](CC(C)C)C(=O)N(C)[C@@H](C)C(=O)N[C@@H](C)C(=O)N2CCC[C@@H]2C1=O [Compound A03] (cyclo([NEtG]L[NMeA]L[dP][Gly(N-CH2-oxan-4-yl)]L[NMeA]A[dP])) .
49.8
